# System: Escherichia coli TOP10
# TEST_PROTOCOL: shrunken log2 fold change of peptide-encoding DNA abundance (4.5 h post-induction vs induction); higher = less antimicrobial activity (less host growth inhibition)
# ASSAY_CONDITIONS: time post-induction: 4.5 h; library: site-saturation at positions 5, 18, 19, 20
METRIC_NAME: shrunken log2 fold change
API doc: respond with a numeric literal and nothing else, no unit.

{"columns": ["SEQUENCE_RECORD", "shrunken log2 fold change"],
 "data": [
  ["RRIRSRPPRLPRPRPRPPTKPRP", 0.0856],
  ["RRIRNRPPRLPRPRPRPKPNPRP", 0.513]
]}

Returns the measured shrunken log2 fold change for the input sequence. Input: RRIRGRPPRLPRPRPRPVTRPRP
0.383

Returns the measured shrunken log2 fold change for the input sequence. Input: RRIRTRPPRLPRPRPRPYTPPRP
-0.34

Returns the measured shrunken log2 fold change for the input sequence. Input: RRIRTRPPRLPRPRPRPDGRPRP
-0.0138

Returns the measured shrunken log2 fold change for the input sequence. Input: RRIRCRPPRLPRPRPRPVCTPRP
0.0452

Returns the measured shrunken log2 fold change for the input sequence. Input: RRIRCRPPRLPRPRPRPYDCPRP
-0.451

Returns the measured shrunken log2 fold change for the input sequence. Input: RRIRGRPPRLPRPRPRPRARPRP
1.09

Returns the measured shrunken log2 fold change for the input sequence. Input: RRIRCRPPRLPRPRPRPEIPPRP
0.0317

Returns the measured shrunken log2 fold change for the input sequence. Input: RRIRQRPPRLPRPRPRPNPTPRP
0.00513

Returns the measured shrunken log2 fold change for the input sequence. Input: RRIRARPPRLPRPRPRPYKWPRP
-0.393

Returns the measured shrunken log2 fold change for the input sequence. Input: RRIRHRPPRLPRPRPRPLPHPRP
-0.162

Returns the measured shrunken log2 fold change for the input sequence. Input: RRIRPRPPRLPRPRPRPIKNPRP
-0.219

Returns the measured shrunken log2 fold change for the input sequence. Input: RRIRNRPPRLPRPRPRPENEPRP
-0.00386

Returns the measured shrunken log2 fold change for the input sequence. Input: RRIRIRPPRLPRPRPRPKKFPRP
-0.666

Returns the measured shrunken log2 fold change for the input sequence. Input: RRIRIRPPRLPRPRPRPRYVPRP
-0.45

Returns the measured shrunken log2 fold change for the input sequence. Input: RRIRERPPRLPRPRPRPNLRPRP
0.0952

Returns the measured shrunken log2 fold change for the input sequence. Input: RRIRRRPPRLPRPRPRPAMFPRP
0.372

* * *

Listing of recorded shrunken log2 fold change by entry.
# Tested on: Escherichia coli TOP10
# TEST_PROTOCOL: shrunken log2 fold change of peptide-encoding DNA abundance (4.5 h post-induction vs induction); higher = less antimicrobial activity (less host growth inhibition)
# ASSAY_CONDITIONS: time post-induction: 4.5 h; library: site-saturation at positions 5, 18, 19, 20
API doc: respond with a numeric literal and nothing else, no unit.

Known shrunken log2 fold change results, listed for orientation:
{"columns": ["SEQUENCE_RECORD", "shrunken log2 fold change"],
 "data": [
  ["RRIRTRPPRLPRPRPRPYKNPRP", -0.937],
  ["RRIRIRPPRLPRPRPRPMWMPRP", -0.0849]
]}

Returns the measured shrunken log2 fold change for the input sequence. Input: RRIRHRPPRLPRPRPRPMCTPRP
-0.696

Returns the measured shrunken log2 fold change for the input sequence. Input: RRIRLRPPRLPRPRPRPACRPRP
0.227

Returns the measured shrunken log2 fold change for the input sequence. Input: RRIRKRPPRLPRPRPRPVFCPRP
-0.126

Returns the measured shrunken log2 fold change for the input sequence. Input: RRIRKRPPRLPRPRPRPEIHPRP
0.27

Returns the measured shrunken log2 fold change for the input sequence. Input: RRIRNRPPRLPRPRPRPPVCPRP
0.126

Returns the measured shrunken log2 fold change for the input sequence. Input: RRIRIRPPRLPRPRPRPYTEPRP
-0.512

Returns the measured shrunken log2 fold change for the input sequence. Input: RRIRTRPPRLPRPRPRPSNIPRP
-0.329

Returns the measured shrunken log2 fold change for the input sequence. Input: RRIRHRPPRLPRPRPRPPQLPRP
-0.215

Returns the measured shrunken log2 fold change for the input sequence. Input: RRIRRRPPRLPRPRPRPFDDPRP
-0.236

Returns the measured shrunken log2 fold change for the input sequence. Input: RRIRVRPPRLPRPRPRPLCKPRP
-0.394

Returns the measured shrunken log2 fold change for the input sequence. Input: RRIRNRPPRLPRPRPRPFPDPRP
-0.00602

Returns the measured shrunken log2 fold change for the input sequence. Input: RRIRKRPPRLPRPRPRPIKLPRP
-0.243

Returns the measured shrunken log2 fold change for the input sequence. Input: RRIRERPPRLPRPRPRPVMLPRP
0.055

* * *

# Tested on: Escherichia coli TOP10
# TEST_PROTOCOL: shrunken log2 fold change of peptide-encoding DNA abundance (4.5 h post-induction vs induction); higher = less antimicrobial activity (less host growth inhibition)
# ASSAY_CONDITIONS: time post-induction: 4.5 h; library: site-saturation at positions 5, 18, 19, 20
METRIC_NAME: shrunken log2 fold change
API doc: respond with a numeric literal and nothing else, no unit.

Known shrunken log2 fold change results, listed for orientation:
{"columns": ["SEQUENCE_RECORD", "SYSTEM_TESTED", "shrunken log2 fold change"],
 "data": [
  ["RRIRGRPPRLPRPRPRPHWGPRP", "Escherichia coli TOP10", 0.247],
  ["RRIRLRPPRLPRPRPRPFFRPRP", "Escherichia coli TOP10", -0.0862]
]}

Returns the measured shrunken log2 fold change for the input sequence. Input: RRIRIRPPRLPRPRPRPFWLPRP
0.183

Returns the measured shrunken log2 fold change for the input sequence. Input: RRIRHRPPRLPRPRPRPNMNPRP
-0.424

Returns the measured shrunken log2 fold change for the input sequence. Input: RRIRHRPPRLPRPRPRPVLLPRP
-0.0673

Returns the measured shrunken log2 fold change for the input sequence. Input: RRIRFRPPRLPRPRPRPSVGPRP
-0.453

Returns the measured shrunken log2 fold change for the input sequence. Input: RRIRPRPPRLPRPRPRPRISPRP
-0.145

Returns the measured shrunken log2 fold change for the input sequence. Input: RRIRARPPRLPRPRPRPNLGPRP
0.0306

* * *

# System: Escherichia coli TOP10
# TEST_PROTOCOL: shrunken log2 fold change of peptide-encoding DNA abundance (4.5 h post-induction vs induction); higher = less antimicrobial activity (less host growth inhibition)
# ASSAY_CONDITIONS: time post-induction: 4.5 h; library: site-saturation at positions 5, 18, 19, 20
METRIC_NAME: shrunken log2 fold change
API doc: respond with a numeric literal and nothing else, no unit.

Known shrunken log2 fold change results, listed for orientation:
{"columns": ["SEQUENCE_RECORD", "SYSTEM_TESTED", "TEST_VALUE"],
 "data": [
  ["RRIRERPPRLPRPRPRPTPMPRP", "Escherichia coli TOP10", 0.0913],
  ["RRIRHRPPRLPRPRPRPKHRPRP", "Escherichia coli TOP10", 0.376],
  ["RRIRWRPPRLPRPRPRPRIHPRP", "Escherichia coli TOP10", 0.178]
]}

Returns the measured shrunken log2 fold change for the input sequence. Input: RRIRARPPRLPRPRPRPYDCPRP
-0.131

Returns the measured shrunken log2 fold change for the input sequence. Input: RRIRHRPPRLPRPRPRPIDAPRP
-0.105

Returns the measured shrunken log2 fold change for the input sequence. Input: RRIRYRPPRLPRPRPRPIRVPRP
-0.0013

Returns the measured shrunken log2 fold change for the input sequence. Input: RRIRRRPPRLPRPRPRPGWTPRP
0.326

Returns the measured shrunken log2 fold change for the input sequence. Input: RRIRARPPRLPRPRPRPNYTPRP
-0.329

Returns the measured shrunken log2 fold change for the input sequence. Input: RRIRTRPPRLPRPRPRPNFDPRP
0.232

Returns the measured shrunken log2 fold change for the input sequence. Input: RRIRSRPPRLPRPRPRPKPFPRP
-0.646

* * *

Listing of recorded shrunken log2 fold change by entry.
# Test system: Escherichia coli TOP10;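 further: peptides expressed intracellularly from a pBAD plasmid library in pooled LB shake-flask culture, induced with 0.3% L-arabinose, DNA abundance read by NGS, three biological replicates, DESeq2 with apeglm shrinkage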
# TEST_PROTOCOL: shrunken log2 fold change of peptide-encoding DNA abundance (4.5 h post-induction vs induction); higher = less antimicrobial activity (less host growth inhibition)
# ASSAY_CONDITIONS: time post-induction: 4.5 h; library: site-saturation at positions 5, 18, 19, 20

Known shrunken log2 fold change results, listed for orientation:
{"columns": ["SEQUENCE_RECORD", "TEST_VALUE"],
 "data": [
  ["RRIRTRPPRLPRPRPRPWCPPRP", -0.139],
  ["RRIRRRPPRLPRPRPRPVINPRP", -0.0966],
  ["RRIRCRPPRLPRPRPRPRPDPRP", 0.276],
  ["RRIRFRPPRLPRPRPRPMMMPRP", -0.101],
  ["RRIRTRPPRLPRPRPRPDPFPRP", -0.0199]
]}

Can you look up shrunken log2 fold change on Escherichia coli TOP10 for RRIRFRPPRLPRPRPRPTDGPRP ?
0.0745

Can you look up shrunken log2 fold change on Escherichia coli TOP10 for RRIRSRPPRLPRPRPRPWPDPRP ?
-0.14

Can you look up shrunken log2 fold change on Escherichia coli TOP10 for RRIRRRPPRLPRPRPRPKAIPRP ?
0.111

Can you look up shrunken log2 fold change on Escherichia coli TOP10 for RRIRNRPPRLPRPRPRPRGMPRP ?
0.151

Can you look up shrunken log2 fold change on Escherichia coli TOP10 for RRIRWRPPRLPRPRPRPWSAPRP ?
0.228

Can you look up shrunken log2 fold change on Escherichia coli TOP10 for RRIRFRPPRLPRPRPRPGTRPRP ?
0.208

Can you look up shrunken log2 fold change on Escherichia coli TOP10 for RRIRRRPPRLPRPRPRPNRCPRP ?
0.118

Can you look up shrunken log2 fold change on Escherichia coli TOP10 for RRIRKRPPRLPRPRPRPFMMPRP ?
-0.1

Can you look up shrunken log2 fold change on Escherichia coli TOP10 for RRIRIRPPRLPRPRPRPVTTPRP ?
-0.0229

Can you look up shrunken log2 fold change on Escherichia coli TOP10 for RRIRFRPPRLPRPRPRPWPRPRP ?
0.626
